# target.or.system: Cytochrome P450 1A2 (Homo sapiens) (UniProt P05177)
# Sequence (P05177 whole entry, looked up): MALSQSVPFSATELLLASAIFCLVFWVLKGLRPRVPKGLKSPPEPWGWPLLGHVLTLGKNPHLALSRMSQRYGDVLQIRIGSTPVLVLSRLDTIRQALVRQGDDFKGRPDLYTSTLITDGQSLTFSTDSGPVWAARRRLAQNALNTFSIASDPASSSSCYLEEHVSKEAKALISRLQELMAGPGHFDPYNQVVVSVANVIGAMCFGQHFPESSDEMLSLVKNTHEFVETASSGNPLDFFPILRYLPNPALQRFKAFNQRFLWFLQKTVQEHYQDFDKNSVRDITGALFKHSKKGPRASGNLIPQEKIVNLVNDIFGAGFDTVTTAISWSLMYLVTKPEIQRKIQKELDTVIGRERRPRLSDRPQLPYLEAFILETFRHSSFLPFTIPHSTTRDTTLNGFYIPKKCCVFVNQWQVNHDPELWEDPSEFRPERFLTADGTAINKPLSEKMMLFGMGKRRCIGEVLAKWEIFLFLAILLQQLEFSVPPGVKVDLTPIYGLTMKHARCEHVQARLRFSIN
# experiment: Cytochrome panel assay with activity outcomes
# experimental.context: recombinant CYP, pro-luciferin dealkylation, luminescence, p450-cyp1a2; series mostly up to 57.1 µM
About 5,700 (36%) of roughly 16,000 compounds were called active. Another 24% or so got no clear call; they are omitted. Calls come from the whole dose curve; as a rule, active = well fitted curve in the direction sought with a large enough effect; inconclusive = small, poorly fitted or top-dose-only effect, or effect the other way; inactive = no such curve, though single readings can be large or run the other way. This is one part of the list.
Labels: yes (active), no (inactive)

item.smiles | class.name
Cn1cnc2c(NCc3ccccc3)nc(NCCO)nc21 | yes
Cc1ccccc1CNc1ncnc2c1ncn2[C@@H]1O[C@@H](CO)[C@H](O)[C@@H]1O | no
COCCCNC(=O)c1c(N)n(/N=C/c2ccccn2)c2nc3ccccc3nc12 | yes
Cc1noc(C)c1-c1ccc2ncnc(NCCN3CCOCC3)c2c1 | yes
Cc1cccc(-c2nnc(SCc3ccccc3)o2)c1 | yes
COCC(=O)N1CCC2(CC1)CN(C(=O)Nc1cccc(C#N)c1)C2 | no
